System: SEM cells
measurementProtocol: cell viability relative to DMSO control; higher = less cytotoxic
measurementContext: HPLM + 10% dialyzed FBS; 48 h; 15.4 µM
Record form. Attribute: cell viability. Fill in for each entry.
Answers are plain numbers, in %.

compound	measuredOn	measurementUnit	result
COc1cc2c(cc1OC)CC(=O)N(CCCN(C)C[C@H]1Cc3cc(OC)c(OC)cc31)CC2.Cl	SEM cells	%	114

Hey, quick one: what's cell viability for each of these?
1. COc1ccc(-c2nc(N3CCOCC3)c3sc(CN(C)c4ncc(C(=O)NO)cn4)cc3n2)cn1
2. C[C@@H]1[C@H](O)[C@@H](C)/C=C/C=C/C=C/C=C/C=C/C=C/C=C/[C@H](O[C@@H]2O[C@H](C)[C@@H](O)[C@H](N)[C@@H]2O)C[C@@H]2O[C@](O)(C[C@@H](O)C[C@@H](O)[C@H](O)CC[C@@H](O)C[C@@H](O)CC(=O)O[C@H]1C)C[C@H](O)[C@H]2C(=O)O
3. N[C@H](CSC(c1ccccc1)(c1ccccc1)c1ccccc1)C(=O)O
4. CO[C@H]1/C=C\C=C(\C)C(=O)NC2=CC(=O)C(NCCN(C)C)=C(C[C@@H](C)C[C@H](OC)[C@H](O)[C@@H](C)/C=C(/C)[C@@H]1OC(N)=O)C2=O

Response:
5.89
105
54.9
23

Hey, quick one: what's cell viability for each of these?
1. CC(C)(C(=O)NCC(F)(F)C(F)(F)F)C(=O)N[C@@H]1C(=O)Nc2ccccc2-c2ccccc21
2. FC(F)c1nc2ccccc2n1-c1nc(N2CCOCC2)nc(N2CCOCC2)n1
3. COCCCN1CCC(NC(=O)c2cc(Cl)c(N)c3c2OCC3)CC1
4. CSCC[C@@H](NC(=O)[C@@H](Cc1ccccc1)NC(=O)CNC(=O)CNC(=O)[C@@H](N)Cc1ccc(O)cc1)C(=O)O
5. COC1=C2OC(=O)\C=C/C2=CC3=C1OC=C3
6. CC1COC2(CCN(CC2)C/3=N/C(=O)C4=CC(=CC(=C4S3)[N+]([O-])=O)C(F)(F)F)O1 (configuration not stated)
7. Cc1cc2c(F)c(Oc3ncnn4cc(OC[C@@H](C)O)c(C)c34)ccc2[nH]1
8. CNC[C@H](O)c1ccc(O)c(O)c1

Response:
1. 129
2. 60
3. 123
4. 91.6
5. 107
6. 82.3
7. 38.6
8. 70.5

Hey, quick one: what's cell viability for each of these?
1. O=C(Nc1cc2cc[nH]c2cn1)c1ccccc1
2. C\C1=C(\C=C(C#N)/C(=O)N1)C2=C[N]3C=CN=C3C=C2
3. COc1ccc(C2CNC(=O)C2)cc1OC1CCCC1 (configuration not stated)
4. CCC[C@H]1C[C@H](C(=O)N[C@@H]([C@@H]2O[C@@H](SC)[C@@H](O)[C@@H](O)[C@H]2O)[C@H](C)Cl)N(C)C1

Response:
4.59
83.3
97
98.4
